system: UACC-257; assay: NCI tumour cell line growth inhibition, 48 h
Active and inactive are the calls of the source. No stated cut-off is given here; in the data, active = GI50 up to about 1.1 µM and inactive = higher.
Assign a class; possible classes are active, inactive

Task item: Per the records of this test, what outcome belongs to CCCCCCCCCCCCCCC(O)C[N+](C)(CCO)CCO (centres undefined) ?
Reply: inactive

Task item: Per the records of this test, what outcome belongs to CC1=NN(C(=O)c2ccncc2)C(=O)C1 ?
Reply: inactive

Task item: Per the records of this test, what outcome belongs to O=C(O)c1ccc(Nc2ccnc3cc(Cl)ccc23)cc1O ?
Reply: inactive

Task item: Per the records of this test, what outcome belongs to CC(C)Cn1cnc2c(NCC(C)O)nc3ccccc3c21 (centres undefined) ?
Reply: inactive

Task item: Per the records of this test, what outcome belongs to CCOc1cc[n+]([C-](C#N)C#N)cc1 ?
Reply: inactive

Task item: Per the records of this test, what outcome belongs to O=C1c2ccccc2/C=C\C(c2ccccc2)=N/N1c1ccccc1Cl ?
Reply: inactive

Task item: Per the records of this test, what outcome belongs to Cc1c(OCc2ccccc2)c(=O)ccn1CCc1c[nH]c2ccccc12 ?
Reply: inactive

Task item: Per the records of this test, what outcome belongs to C[As+](C)(c1ccc(Br)c([N+](=O)[O-])c1)c1ccc(Br)c([N+](=O)[O-])c1 ?
Reply: inactive

Task item: Per the records of this test, what outcome belongs to O/N=C1/C(=C/c2ccccc2)CCCC1C(NO)c1ccccc1 (centres undefined) ?
Reply: inactive

Task item: Per the records of this test, what outcome belongs to CN(CCNCc1cn(C)c2c1ccc1ccccc12)CCNCc1cn(C)c2c1ccc1ccccc12 ?
Reply: inactive

Task item: Per the records of this test, what outcome belongs to COC1=CC(=O)C2C(C1=O)C(c1ccc(Cl)cc1)[C@@H]2C (some centres undefined) ?
Reply: inactive

Task item: Per the records of this test, what outcome belongs to OC1c2ccccc2CC12Cc1ccccc1C2 (centres undefined) ?
Reply: inactive

Task item: Per the records of this test, what outcome belongs to C/C=C1/CC(C(=O)OC)N(C(=O)OCc2ccccc2)C1=S (centres undefined) ?
Reply: inactive

Task item: Per the records of this test, what outcome belongs to CCOC(=O)C1S/C(=N\c2ccc(Cl)c(Cl)c2)N=C1C (centres undefined) ?
Reply: inactive

Task item: Per the records of this test, what outcome belongs to C[n+]1c(-c2ccc(NC(=O)c3ccc(C(=O)Nc4ccc(-c5cn6ccccc6[n+]5C)cc4)cc3)cc2)cn2ccccc21 ?
Reply: inactive

Task item: Per the records of this test, what outcome belongs to Cc1ccc(O)c(C2=CC(c3cccc(Br)c3)SC(=N)N2)c1 (centres undefined) ?
Reply: inactive

Task item: Per the records of this test, what outcome belongs to Cc1cccc(NS(=O)(=O)c2ccc(/N=N/c3c(O)c(C(=O)O)cc4ccccc34)cc2)n1 ?
Reply: inactive

Task item: Per the records of this test, what outcome belongs to CN1C2C=C(c3ccccc3)CC1CC2 (centres undefined) ?
Reply: inactive

Task item: Per the records of this test, what outcome belongs to COC1/C=C\C=C(/C)C(=O)NC2=CC(=O)C(O)=C(CC(C)CC(OC)C(O)C(C)/C=C(\C)C1OC(N)=O)C2=O (centres undefined) ?
Reply: active

Task item: Per the records of this test, what outcome belongs to CC1=NC(=Cc2cc(Br)cc(Br)c2)C(=O)N1n1c(-c2ccccc2)nc2ccccc2c1=O ?
Reply: inactive

Task item: Per the records of this test, what outcome belongs to CSc1nc2ccccc2c(=O)n1/N=C1\C(=O)N(CN2CCOCC2)c2ccc(Cl)cc21 ?
Reply: inactive

Task item: Per the records of this test, what outcome belongs to Clc1ccc(Nc2nnc(CNc3ccc(-c4nnc(Nc5ccc(Cl)cc5)o4)cc3)o2)cc1 ?
Reply: inactive

Task item: Per the records of this test, what outcome belongs to COc1ccc(-c2cc(=O)c3c(OC)c(OC)c(OC)cc3o2)cc1 ?
Reply: inactive

Task item: Per the records of this test, what outcome belongs to Cc1cc(C)c2c(-c3ccccc3)cc(=O)[nH]c2c1 ?
Reply: inactive

Task item: Per the records of this test, what outcome belongs to CCOC(=O)C[C@@H]1C2(C=C[C@@]13CO3)OCC(C)(C)CO2 ?
Reply: inactive

Task item: Per the records of this test, what outcome belongs to C#CCOCn1ccc(=O)[nH]c1=O ?
Reply: inactive

Task item: Per the records of this test, what outcome belongs to CC#C[I+]c1ccccc1 ?
Reply: inactive

Task item: Per the records of this test, what outcome belongs to C=CCC1([C@H](C)[C@@H](OC(C)=O)c2cc(OC)c(OC)c(OC)c2)C[C@@H](OC)CCC1=O (some centres undefined) ?
Reply: inactive

Task item: Per the records of this test, what outcome belongs to Cc1c(N=NN(C)C)cc[n+]([O-])c1C ?
Reply: inactive

Task item: Per the records of this test, what outcome belongs to CC1(C)CC(Nc2ccc(Nc3ccccc3)cc2)CC(C)(C)N1 ?
Reply: inactive

Task item: Per the records of this test, what outcome belongs to Nc1nnc(N)n1NC(=O)C(=O)Nc1ccc([N+](=O)[O-])cc1 ?
Reply: inactive

Task item: Per the records of this test, what outcome belongs to O=C(O)C1=C(C(=O)O)N(c2ccncc2)C(c2ccco2)=CC1c1ccccc1[N+](=O)[O-] (centres undefined) ?
Reply: inactive

Task item: Per the records of this test, what outcome belongs to CC(C)=CC(=O)Oc1ccc([N+](=O)[O-])cc1 ?
Reply: inactive

Task item: Per the records of this test, what outcome belongs to CCN(CC)CCC(=O)c1ccc(Sc2ccc(F)cc2)cc1 ?
Reply: inactive

Task item: Per the records of this test, what outcome belongs to Cc1nnc(N)nc1/C=C/c1c(O)ccc2ccccc12 ?
Reply: inactive

Task item: Per the records of this test, what outcome belongs to CC(C)N(C(C)C)S(=O)(=O)C[C@]12CC[C@H](CC13OCC(CS(=O)(=O)c1ccccc1)O3)C2(C)C (some centres undefined) ?
Reply: inactive

Task item: Per the records of this test, what outcome belongs to Nc1nn(CC(O)CO)c(=O)s1 (centres undefined) ?
Reply: inactive

Task item: Per the records of this test, what outcome belongs to COc1ccc2nc3cc(Cl)ccc3c(NCCC[N+](C)(C)CCCCCCCCCCCCCCCC[N+](C)(C)CCCNc3c4ccc(Cl)cc4nc4ccc(OC)cc34)c2c1 ?
Reply: inactive

Task item: Per the records of this test, what outcome belongs to CC(/C=C1\CCC(CN(C)C)C1=O)c1cccc(Br)c1 (centres undefined) ?
Reply: inactive

Task item: Per the records of this test, what outcome belongs to COc1ccc(C=O)c(N(C)C(=O)C(C)(C)C)c1 ?
Reply: inactive

Task item: Per the records of this test, what outcome belongs to Cc1ccccc1NC(=S)N/N=C(/c1ccccc1)c1ccccn1 ?
Reply: active

Task item: Per the records of this test, what outcome belongs to COc1ccc(C(=O)/C=C/c2ccc(OCC#N)cc2)cc1 ?
Reply: inactive

Task item: Per the records of this test, what outcome belongs to CCSC1(SCC)CCN(/C=N/C(C)(C)C)C1 ?
Reply: inactive

Task item: Per the records of this test, what outcome belongs to COC(=O)/C1=C/C2CC(/C=C(/c3ccccc3)C(=O)O1)C2 ?
Reply: inactive

Measured values drawn from ChEMBL document CHEMBL1201862 for this set.
